Molecular target: MAP2K1 (human)
Assay: radiometric filter-binding kinase assay
Conditions: compound 1.0 µM
Reported values of residual activity for individual entries
Express it in %; write the number only.

Recorded residual activity, per entry:
>  <molecule>
Nc1cccc2c1CN(C1CCC(=O)NC1=O)C2=O (stereo not drawn)

>  <metric.name>
residual activity

>  <unit.abbrev>
%

>  <readout.value>
90

$$$$
>  <molecule>
C[C@H]1CCCC(=O)CCC/C=C/c2cc(O)cc(O)c2C(=O)O1

>  <metric.name>
residual activity

>  <unit.abbrev>
%

>  <readout.value>
66

$$$$

# input molecule: Oc1ccc2ccccc2c1SSc1c(O)ccc2ccccc12 ; wanted: its residual activity
85

# input molecule: c1ccc2c(-c3cnn4cc(-c5ccc(N6CCNCC6)cc5)cnc34)ccnc2c1 ; wanted: its residual activity
93

# input molecule: NC(=O)c1c(NC(=O)C2CC2)sc2c1CCCC2 ; wanted: its residual activity
92

# input molecule: Cc1ccc(=O)n(-c2ccccc2)c1 ; wanted: its residual activity
77

# input molecule: CN(C)C/C=C/C(=O)Nc1cccc(C(=O)Nc2ccc(Nc3nccc(-c4cccnc4)n3)cc2)c1 ; wanted: its residual activity
113

====

Reported values of residual activity for individual entries
Target: PAK4 (human) (UniProt O96013)
Sequence (O96013 whole entry, looked up): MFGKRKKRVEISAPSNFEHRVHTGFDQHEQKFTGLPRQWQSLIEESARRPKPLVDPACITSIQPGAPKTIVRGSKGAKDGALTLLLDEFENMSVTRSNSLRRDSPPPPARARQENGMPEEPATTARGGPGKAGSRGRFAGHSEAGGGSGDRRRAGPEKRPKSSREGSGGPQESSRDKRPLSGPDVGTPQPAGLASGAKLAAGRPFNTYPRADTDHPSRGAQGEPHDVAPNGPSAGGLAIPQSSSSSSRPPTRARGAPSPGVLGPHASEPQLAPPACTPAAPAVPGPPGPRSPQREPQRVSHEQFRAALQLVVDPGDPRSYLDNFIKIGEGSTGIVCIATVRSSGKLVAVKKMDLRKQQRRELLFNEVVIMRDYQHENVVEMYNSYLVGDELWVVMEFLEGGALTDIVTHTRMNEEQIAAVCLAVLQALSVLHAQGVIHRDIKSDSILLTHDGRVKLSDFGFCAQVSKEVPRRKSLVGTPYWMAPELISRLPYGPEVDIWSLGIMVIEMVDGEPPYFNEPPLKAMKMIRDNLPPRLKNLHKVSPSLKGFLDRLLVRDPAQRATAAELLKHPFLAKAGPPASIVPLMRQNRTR
Test: radiometric filter-binding kinase assay
Conditions: compound 1.0 µM
Express it in %; write the number only.

>  <compound>
Cc1ccc(-c2ccc3c(ccc4sc5c(c43)NC[C@@H](C)NC5=O)n2)cn1

>  <residual activity (%)>
88

$$$$
>  <compound>
Oc1ccc2ccccc2c1SSc1c(O)ccc2ccccc12

>  <residual activity (%)>
119

$$$$
>  <compound>
O=C(O)c1cc(N=Nc2ccc(S(=O)(=O)Nc3ccccn3)cc2)ccc1O

>  <residual activity (%)>
89

$$$$
>  <compound>
COc1ccc2c(c1)c1c3c(c4c5ccccc5n(C)c4c1n2CC(O)CN(C)C)C(=O)NC3=O (configuration not stated)

>  <residual activity (%)>
82

$$$$
>  <compound>
C=CC(=O)N1CCC[C@@H](n2nc(-c3ccc(Oc4ccccc4)cc3)c3c(N)ncnc32)C1

>  <residual activity (%)>
85

$$$$

# input compound: CN(C)C/C=C/C(=O)Nc1cccc(C(=O)Nc2ccc(Nc3nccc(-c4cccnc4)n3)cc2)c1 ; wanted: its residual activity
66

# input compound: NC(=O)c1cc2c(-c3cccc(-c4ccccc4)c3)cnc(N)c2s1 ; wanted: its residual activity
18

====

Biological target: MAP3K7 TAB1 (human) (UniProt Q15750+O43318)
Sequence (O43318 whole entry, looked up): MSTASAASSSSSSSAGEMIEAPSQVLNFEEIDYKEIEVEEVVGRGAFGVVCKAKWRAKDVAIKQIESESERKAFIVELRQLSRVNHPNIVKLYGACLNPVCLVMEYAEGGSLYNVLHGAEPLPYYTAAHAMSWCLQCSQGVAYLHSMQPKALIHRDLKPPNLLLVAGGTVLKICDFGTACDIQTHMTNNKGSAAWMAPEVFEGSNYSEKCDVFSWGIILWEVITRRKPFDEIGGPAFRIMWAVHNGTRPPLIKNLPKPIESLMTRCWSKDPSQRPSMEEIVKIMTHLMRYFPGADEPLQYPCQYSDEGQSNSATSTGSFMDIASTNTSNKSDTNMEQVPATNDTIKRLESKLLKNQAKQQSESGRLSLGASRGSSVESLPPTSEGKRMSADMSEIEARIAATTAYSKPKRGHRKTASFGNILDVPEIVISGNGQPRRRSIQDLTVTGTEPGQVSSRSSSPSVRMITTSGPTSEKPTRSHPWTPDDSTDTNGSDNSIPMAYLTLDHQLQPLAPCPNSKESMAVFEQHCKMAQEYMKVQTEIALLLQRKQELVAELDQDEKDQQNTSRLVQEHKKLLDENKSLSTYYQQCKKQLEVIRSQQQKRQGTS
Sequence (Q15750 whole entry, looked up): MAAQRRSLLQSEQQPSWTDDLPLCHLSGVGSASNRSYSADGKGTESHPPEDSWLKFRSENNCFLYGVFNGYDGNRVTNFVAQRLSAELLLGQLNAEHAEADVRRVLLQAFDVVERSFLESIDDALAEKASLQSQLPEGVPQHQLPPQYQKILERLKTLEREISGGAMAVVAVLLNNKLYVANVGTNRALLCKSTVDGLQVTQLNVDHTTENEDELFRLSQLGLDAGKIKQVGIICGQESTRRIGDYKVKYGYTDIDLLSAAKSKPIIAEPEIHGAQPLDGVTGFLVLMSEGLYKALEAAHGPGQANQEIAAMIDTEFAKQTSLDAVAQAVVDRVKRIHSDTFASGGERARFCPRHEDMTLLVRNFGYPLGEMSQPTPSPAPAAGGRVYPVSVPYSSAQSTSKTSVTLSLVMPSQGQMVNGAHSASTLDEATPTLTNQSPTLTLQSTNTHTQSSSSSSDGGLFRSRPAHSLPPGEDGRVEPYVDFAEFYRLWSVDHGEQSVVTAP
Test: radiometric filter-binding kinase assay
Settings: compound 0.1 µM
metric.name: residual activity
Please append the unit to your numeric answer.

>  <molecule>
CCn1c(-c2nonc2N)nc2cncc(CNC3CCNCC3)c21

>  <subject.of.test>
MAP3K7 TAB1 (human) (UniProt Q15750+O43318)

>  <residual activity>
95%

$$$$
>  <molecule>
NC(=O)c1cc(-c2ccnc(NC3CCCCC3)c2)nc(N2CCNCC2)c1

>  <subject.of.test>
MAP3K7 TAB1 (human) (UniProt Q15750+O43318)

>  <residual activity>
94%

$$$$
>  <molecule>
CCCCCc1ccc(/C=C/[C@H](O)[C@@H](CO)NC)cc1

>  <subject.of.test>
MAP3K7 TAB1 (human) (UniProt Q15750+O43318)

>  <residual activity>
100%

$$$$
>  <molecule>
CN1CCN(CCOc2cc(OC3CCOCC3)c3c(Nc4c(Cl)ccc5c4OCO5)ncnc3c2)CC1

>  <subject.of.test>
MAP3K7 TAB1 (human) (UniProt Q15750+O43318)

>  <residual activity>
115%

$$$$
>  <molecule>
c1ccc2c(-c3cnn4cc(-c5ccc(N6CCNCC6)cc5)cnc34)ccnc2c1

>  <subject.of.test>
MAP3K7 TAB1 (human) (UniProt Q15750+O43318)

>  <residual activity>
84%

$$$$

# input molecule: O=C(N[C@@H](COc1ccc2[nH]c(=O)[nH]c2c1)c1ccccc1)c1cccn(Cc2ccc(F)c(F)c2)c1=O ; wanted: its residual activity
97%

# input molecule: COc1ccc(-n2ncc3cnc(Nc4cc(OC)c(OC)c(OCCCN5CCN(C)CC5)c4)nc32)cc1 ; wanted: its residual activity
14%

# input molecule: CC1=C(CO)C(=O)O[C@@H]([C@@H](C)[C@H]2CC[C@H]3[C@@H]4C[C@H]5O[C@]56[C@@H](O)C=CC(=O)[C@]6(C)C4CC[C@]23C)C1 (some centres undefined) ; wanted: its residual activity
114%

# input molecule: COc1cc(O)c2c(c1)/C=C/C[C@H](O)[C@H](O)C(=O)/C=C\C[C@H](C)OC2=O ; wanted: its residual activity
5%

====

Reported values of residual activity for individual entries
Molecular target: IRAK4 (human) (UniProt Q9NWZ3)
Sequence (Q9NWZ3 whole entry, looked up): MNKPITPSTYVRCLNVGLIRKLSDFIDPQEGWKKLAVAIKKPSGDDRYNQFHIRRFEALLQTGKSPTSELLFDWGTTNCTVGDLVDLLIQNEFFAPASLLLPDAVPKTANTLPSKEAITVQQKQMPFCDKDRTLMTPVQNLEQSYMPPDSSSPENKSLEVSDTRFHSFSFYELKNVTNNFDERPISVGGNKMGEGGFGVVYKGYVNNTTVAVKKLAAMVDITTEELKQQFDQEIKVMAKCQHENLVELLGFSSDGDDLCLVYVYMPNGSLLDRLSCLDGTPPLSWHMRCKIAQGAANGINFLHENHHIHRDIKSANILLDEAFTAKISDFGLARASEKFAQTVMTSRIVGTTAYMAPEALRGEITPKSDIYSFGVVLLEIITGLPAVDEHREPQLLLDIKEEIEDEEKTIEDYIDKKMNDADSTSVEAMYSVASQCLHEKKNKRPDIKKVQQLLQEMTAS
Assay: radiometric filter-binding kinase assay
Settings: compound 1.0 µM
Express it in %; write the number only.

Recorded residual activity, per entry:
>  <compound>
O=C(O)c1cc(N=Nc2ccc(S(=O)(=O)Nc3ccccn3)cc2)ccc1O

>  <residual activity / %>
104

$$$$
>  <compound>
C=CC(=O)N1CCC[C@@H](n2nc(-c3ccc(Oc4ccccc4)cc3)c3c(N)ncnc32)C1

>  <residual activity / %>
102

$$$$
>  <compound>
O=c1c(O)c(-c2ccc(O)c(O)c2)oc2cc(O)c(O)c(O)c12

>  <residual activity / %>
80

$$$$
>  <compound>
CN1C(=O)[C@@H](Cc2c[nH]c3ccccc23)NC1=S

>  <residual activity / %>
109

$$$$
>  <compound>
Cc1cccc(-c2nn(C(=S)Nc3ccccc3)cc2-c2ccnc3ccccc23)n1

>  <residual activity / %>
99

$$$$

# input compound: Nc1cccc2c1CN(C1CCC(=O)NC1=O)C2=O (stereo not drawn) ; wanted: its residual activity
107

# input compound: CC(C)(C#N)c1ccc(N2C(=O)OCc3cnc4ccc(-c5cnc6ccccc6c5)cc4c32)cc1 ; wanted: its residual activity
90

# input compound: O=C(Nc1nc2cc(C(F)(F)F)cc(NC3CC3)n2n1)c1cccnc1 ; wanted: its residual activity
83

# input compound: COc1cc(C(=O)N2CCOCC2)c(F)cc1Nc1ncc(C(F)(F)F)c(NC2CC2)n1 ; wanted: its residual activity
90

# input compound: O=C(NOC[C@H](O)CO)c1ccc(F)c(F)c1Nc1ccc(I)cc1Cl ; wanted: its residual activity
81

# input compound: Cc1nc(-c2ccc(OCC(C)C)c(C#N)c2)sc1C(=O)O ; wanted: its residual activity
90

# input compound: C=C1C(=O)OC2C1CC/C(C)=C/CCC1(C)OC21 (stereo not drawn) ; wanted: its residual activity
106

# input compound: CNC(=O)C1[C@H]2O[C@@](C)([C@@H]1N)n1c3ccccc3c3c4c(c5c6ccccc6n2c5c31)C(=O)NC4 (stereo partly drawn) ; wanted: its residual activity
4

====

Reported values of residual activity for individual entries
System: AKT2 (human), P31751 [S474D]
Sequence (P31751 whole entry S474D, looked up): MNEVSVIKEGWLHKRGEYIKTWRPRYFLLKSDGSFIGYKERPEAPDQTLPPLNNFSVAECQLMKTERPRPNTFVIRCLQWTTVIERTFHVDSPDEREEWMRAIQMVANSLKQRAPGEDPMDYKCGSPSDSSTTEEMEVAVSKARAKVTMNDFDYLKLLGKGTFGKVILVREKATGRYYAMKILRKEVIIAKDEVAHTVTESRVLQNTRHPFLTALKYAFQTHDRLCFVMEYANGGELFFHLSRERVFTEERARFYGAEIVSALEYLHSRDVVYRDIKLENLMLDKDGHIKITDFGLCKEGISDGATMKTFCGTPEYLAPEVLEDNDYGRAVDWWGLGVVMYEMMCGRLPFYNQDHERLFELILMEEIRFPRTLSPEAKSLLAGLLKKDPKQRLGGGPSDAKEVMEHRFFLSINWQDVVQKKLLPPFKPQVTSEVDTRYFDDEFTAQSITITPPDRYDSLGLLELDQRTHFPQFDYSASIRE
Assay: radiometric filter-binding kinase assay
Settings: compound 0.1 µM
Express it in %; write the number only.

>  <compound>
CNC(=O)C1[C@H]2O[C@@](C)([C@@H]1N)n1c3ccccc3c3c4c(c5c6ccccc6n2c5c31)C(=O)NC4 (some centres undefined)

>  <metric.name>
residual activity

>  <unit.abbrev>
%

>  <readout.value>
51

$$$$
>  <compound>
COc1ccc(-n2ncc3cnc(Nc4cc(OC)c(OC)c(OCCCN5CCN(C)CC5)c4)nc32)cc1

>  <metric.name>
residual activity

>  <unit.abbrev>
%

>  <readout.value>
88

$$$$
>  <compound>
CNc1nc(-c2ccc3c(N)n[nH]c3c2)cc(N2C[C@@H](C(=O)NC3CCCCC3)CC[C@H]2C)n1

>  <metric.name>
residual activity

>  <unit.abbrev>
%

>  <readout.value>
118

$$$$

Switching to the query record.
# input compound: NC1(c2ccc(-c3nc4ccn5c(=O)[nH]nc5c4cc3-c3ccccc3)cc2)CCC1 ; wanted: its residual activity
69

====

Reported values of residual activity for individual entries
Target: SIK3 (human) (UniProt Q9Y2K2)
Sequence (Q9Y2K2 whole entry, looked up): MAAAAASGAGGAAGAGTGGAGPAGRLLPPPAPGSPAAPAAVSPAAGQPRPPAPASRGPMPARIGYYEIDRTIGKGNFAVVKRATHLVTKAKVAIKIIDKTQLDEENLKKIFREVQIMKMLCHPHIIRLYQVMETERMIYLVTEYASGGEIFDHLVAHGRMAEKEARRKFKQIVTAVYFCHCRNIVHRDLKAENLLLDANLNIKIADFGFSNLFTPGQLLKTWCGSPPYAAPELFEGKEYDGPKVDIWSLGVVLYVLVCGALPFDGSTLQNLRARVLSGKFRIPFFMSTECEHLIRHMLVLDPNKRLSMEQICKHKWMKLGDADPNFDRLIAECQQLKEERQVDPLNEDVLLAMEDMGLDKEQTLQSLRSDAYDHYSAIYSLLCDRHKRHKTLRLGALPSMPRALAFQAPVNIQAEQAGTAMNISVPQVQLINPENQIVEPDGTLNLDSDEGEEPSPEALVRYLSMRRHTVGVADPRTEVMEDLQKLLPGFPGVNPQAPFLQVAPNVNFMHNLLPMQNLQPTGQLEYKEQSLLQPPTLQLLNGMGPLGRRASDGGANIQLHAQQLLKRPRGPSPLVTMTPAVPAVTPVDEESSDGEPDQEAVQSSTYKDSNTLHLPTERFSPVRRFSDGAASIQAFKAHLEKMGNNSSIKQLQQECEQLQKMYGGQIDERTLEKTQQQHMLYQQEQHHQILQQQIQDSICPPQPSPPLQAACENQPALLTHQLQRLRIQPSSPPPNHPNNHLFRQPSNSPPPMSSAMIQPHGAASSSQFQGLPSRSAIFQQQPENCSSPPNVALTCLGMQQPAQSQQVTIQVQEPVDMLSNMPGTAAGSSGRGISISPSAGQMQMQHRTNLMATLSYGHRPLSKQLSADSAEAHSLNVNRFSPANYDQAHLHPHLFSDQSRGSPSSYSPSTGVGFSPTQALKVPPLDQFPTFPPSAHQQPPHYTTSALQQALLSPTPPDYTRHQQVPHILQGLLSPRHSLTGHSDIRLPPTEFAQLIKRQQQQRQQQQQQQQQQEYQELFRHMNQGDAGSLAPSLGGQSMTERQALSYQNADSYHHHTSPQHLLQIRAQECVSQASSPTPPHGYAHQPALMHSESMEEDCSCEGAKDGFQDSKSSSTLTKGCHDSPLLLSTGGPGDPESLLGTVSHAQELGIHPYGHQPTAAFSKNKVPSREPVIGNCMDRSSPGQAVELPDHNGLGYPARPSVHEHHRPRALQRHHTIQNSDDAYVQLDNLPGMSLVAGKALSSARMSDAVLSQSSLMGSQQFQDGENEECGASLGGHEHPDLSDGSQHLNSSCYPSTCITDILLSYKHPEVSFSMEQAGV
Assay: radiometric filter-binding kinase assay
Settings: compound 10.0 µM
Express it in %; write the number only.

Recorded residual activity, per entry:
>  <compound>
COC(=O)/C=C/C(=O)OC

>  <unit.abbrev>
%

>  <residual activity>
98

$$$$
>  <compound>
NCC(=O)Nc1ccc(-n2nc(C(F)(F)F)cc2-c2ccc3c(ccc4ccccc43)c2)cc1

>  <unit.abbrev>
%

>  <residual activity>
101

$$$$
>  <compound>
CCNc1nc(Nc2cc(F)c(C(=O)N3CCOCC3)cc2OC)ncc1C(F)(F)F

>  <unit.abbrev>
%

>  <residual activity>
88

$$$$
>  <compound>
CNc1nc(-c2ccc3c(N)n[nH]c3c2)cc(N2C[C@@H](C(=O)NC3CCCCC3)CC[C@H]2C)n1

>  <unit.abbrev>
%

>  <residual activity>
58

$$$$

# input compound: CCn1c(-c2nonc2N)nc2cncc(CNC3CCNCC3)c21 ; wanted: its residual activity
89
